- assay info: chemical genetic growth profiling, strain panel (AID 1159580);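 further: tested at 20 µM; growth read once vehicle control cultures reached saturation at 30 °C; 1 = growth at the plate median or of vehicle wells; lower values mean less growth of the strain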
- settings: S. cerevisiae deletion strains, growth OD, locus YPR119W, strain clb2
The whole screen tested about 5,500 compounds, of which about 2,000 (36%) were called active. Another 18% or so got no clear call; they are omitted. No stated cut-off is given here; in the data, active means normalized growth mostly below about 0.91 (no sharp cut-off); inconclusive means no clear call, values can overlap the other calls; inactive means mostly above about 0.92. This is one part of the list.
Pick one: active, inactive

Reference set (4 entries):
C#CCN(C)Cc1ccccc1 = inactive
COc1ccc2c(c1)OC1(O)COc3cc(OC)c(OC)cc3C1=C2 (stereo not drawn) = inactive
Clc1ccc(C(OCCN2CCCCC2)c2ccccc2)cc1 (stereo not drawn) = inactive
CCC1(O)CC(OC2CC(N(C)C)C(OC3CC(O)C(OC4CCC(=O)C(C)O4)C(C)O3)C(C)O2)c2c(cc3c(c2O)C(=O)c2c(O)cccc2C3=O)C1C(=O)OC (stereo not drawn) = inactive

(Q) Would you mind telling me which call this test gave `Cc1ncc(CNC(=O)N(CCCl)N=O)c(N)n1` ?
(A) inactive

(Q) Check `CN1CCC(OC(c2ccccc2)c2ccccc2)CC1` too.
(A) inactive

(Q) Check `COC(=O)/C=C/C(C)=C/C=C/C(C)=C/C=C/C=C(C)/C=C/C=C(C)/C=C/C(=O)O` too.
(A) inactive

(Q) Check COC(=O)[C@@H]1OC(=O)C2OC23[C@@]1(C)CCC1[C@]2(C)C(C[C@H](O)[C@]13C)C(C)(C)[C@H](OC(C)=O)C[C@@H]2OC(C)=O (stereo partly drawn) too.
(A) inactive

(Q) Check `C=CCc1ccc(O)c(OC)c1` too.
(A) active

(Q) Check `O=c1cccc2ccc(O)c(O)c2c1O` too.
(A) inactive

###

- assay info: chemical genetic growth profiling, strain panel (AID 1159580);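 further: tested at 20 µM; growth read once vehicle control cultures reached saturation at 30 °C; 1 = growth at the plate median or of vehicle wells; lower values mean less growth of the strain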
- settings: S. cerevisiae deletion strains, growth OD, locus YOR144C, strain elg1, hits give low values
About 2,000 (36%) of roughly 5,500 compounds were called active. Not shown: some 18% with an inconclusive outcome. Some of the results follow.
assay metric: normalized growth

CN1CC(CO)=C[C@@H]2c3cccc4[nH]cc(c34)C[C@H]21 = 1.01 (inactive)
O=C1C(Cl)=C(Cl)C(=O)C(Cl)=C1Cl = 0.985 (inactive)

Kindly review the next compound as well.
(Q) Please give the measured normalized growth for this compound: O=C(OCC(O)CO)c1ccccc1Nc1ccnc2cc(Cl)ccc12 (stereo not drawn)
(A) 0.993 (inactive)

###

- assay info: chemical genetic growth profiling, strain panel (AID 1159580);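 further: tested at 20 µM; growth read once vehicle control cultures reached saturation at 30 °C; 1 = growth at the plate median or of vehicle wells; lower values mean less growth of the strain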
- settings: S. cerevisiae deletion strains, growth OD, locus YLR258W, strain gsy2
Among all 5,500 compounds or so, about 2,000 (36%) were called active. Not shown: some 18% with an inconclusive outcome. Rule as the data show it: active = normalized growth mostly below about 0.91 (no sharp cut-off); inconclusive = no clear call, values can overlap the other calls; inactive = mostly above about 0.92. Some of the results follow.
Pick one: active, inactive

Reference set (5 entries):
CN1C2CCC1CC(OC(c1ccccc1)c1ccccc1)C2 (configuration not stated) = inactive
CCCCC/C=C/CCC(=O)N[C@H]1[C@H](Oc2c3cc4cc2Oc2ccc(cc2Cl)[C@@H](O[C@@H]2O[C@H](CO)[C@@H](O)[C@H](O)[C@H]2NC(C)=O)[C@@H]2NC(=O)[C@H](NC(=O)[C@@H]4NC(=O)[C@H]4NC(=O)C(Cc5ccc(c(Cl)c5)O3)NC(=O)[C@H](N)c3ccc(O)c(c3)Oc3cc(O)cc4c3)c3ccc(O)c(c3)-c3c(OC4O[C@H](CO)[C@@H](O)[C@H](O)[C@@H]4O)cc(O)cc3[C@@H](C(=O)O)NC2=O)O[C@H](CO)[C@@H](O)[C@@H]1O (some centres not stated) = inactive
COc1cc2nc(N(C)CCCNC(=O)C3CCCO3)nc(N)c2cc1OC (configuration not stated) = inactive
Cc1ccccc1C(OCCN(C)C)c1ccccc1 (configuration not stated) = inactive
Oc1ccc2c(c1)O[C@H](c1ccc(O)c(O)c1)[C@@H](O)C2 = inactive

(Q) Would you mind telling me which call this test gave `Oc1cc(O)c2c(c1)O[C@H](c1ccc(O)c(O)c1)[C@H](O)C2` ?
(A) inactive

(Q) Check `COC(=O)/C=C/C(C)=C/C=C/C(C)=C/C=C/C=C(C)/C=C/C=C(C)/C=C/C(=O)O` too.
(A) inactive

(Q) Check COC(=O)C[C@H]1C2(C)CC34OC5(C)O[C@@]6([C@H](OC)C(OC(=O)C(C)C)[C@]7(C)C(/C(=C(/OC)C(C)C)C(=O)O[C@H]7c7ccoc7)[C@@]6(O5)[C@H](OC)[C@@]3(OC)C2OC(C)=O)[C@]14C (some centres not stated) too.
(A) inactive

(Q) Check `OCCc1ccccc1` too.
(A) inactive

(Q) Check `O=C(O)CCCc1ccc(N(CCCl)CCCl)cc1` too.
(A) inactive

(Q) Check `CN1CCC(OC(c2ccccc2)c2ccccc2)CC1` too.
(A) inactive

(Q) Check `N[C@@H](Cc1ccc(N(CCCl)CCCl)cc1)C(=O)O` too.
(A) inactive

(Q) Check CNCCC(Oc1ccc(C(F)(F)F)cc1)c1ccccc1 (configuration not stated) too.
(A) inactive

(Q) Check O=C(/C=C/c1ccc(O)c(O)c1)OC(Cc1ccc(O)c(O)c1)C(=O)O (configuration not stated) too.
(A) inactive

(Q) Check `Oc1cc(O)c2c(c1)O[C@H](c1ccc(O)c(O)c1)[C@@H](O)C2` too.
(A) inactive

(Q) Check `C#CCCCCCCCCCCCc1ccco1` too.
(A) inactive

(Q) Check `CC[C@@]1(O)C[C@H](O)c2c(cc3c(c2O)C(=O)c2c(O)ccc(O)c2C3=O)[C@H]1C(=O)OC` too.
(A) active

(Q) Check `CCN(CC)Cc1ccc(Nc2ccnc3cc(Cl)ccc23)cc1O` too.
(A) inactive

(Q) Check CC(=O)S[C@@H]1CC2=CC(=O)CC[C@]2(C)[C@H]2CC[C@@]3(C)[C@@H](CC[C@@]34CCC(=O)O4)C12 (some centres not stated) too.
(A) inactive

(Q) Check COC(=O)C[C@H]1C2(C)CC34OC5(C)O[C@@]6([C@H](OC(C)=O)C(OC(C)=O)[C@]7(C)C(/C(=C(/O)C(C)C)C(=O)O[C@H]7c7ccoc7)[C@@]6(O5)[C@H](OC(C)=O)[C@@]3(O)C2OC(=O)C(C)C)[C@]14C (some centres not stated) too.
(A) inactive

(Q) Check C[C@]12CCC(=O)C=C1C=CC1C2CC[C@@]2(C)C1CC[C@@]2(O)CCC(=O)O (some centres not stated) too.
(A) inactive

(Q) Check CC#CC1(O)CCC2C3CCC4=CC(=O)CCC4=C3C(c3ccc(N(C)C)cc3)CC21C (configuration not stated) too.
(A) inactive

(Q) Check CCN1CCCC(OC(=O)C(c2ccccc2)c2ccccc2)C1 (configuration not stated) too.
(A) inactive

(Q) Check C=CC[C@]1(O)CCC2C3CCC4=CC(=O)CCC4=C3C=C[C@@]21C (some centres not stated) too.
(A) inactive

(Q) Check `CN1C2C[C@H](OC(=O)[C@H](CO)c3ccccc3)C[C@H]1[C@@H](O)C2` too.
(A) inactive

(Q) Check `CCCCCCCCC(=O)NCc1ccc(O)c(OC)c1` too.
(A) inactive
